Collected Antibacterial Activity (MIC) values appear next to each entry.
tested on: Streptococcus agalactiae CMX 508; experiment: In vitro antibacterial activity, agar dilution MIC; assay type: cell-based; design: unit not given here; details: code KK, BHI agar, 35-37° C., 20 to 24 hours

- compound: "CCC1OC(=O)C(C)(O)C(=O)C(C)C(OC2OC(C)CC(N(C)C)C2O)C(C)(OCC=Cc2cnc3ccccc3c2)CC(C)C(=O)C(C)C2NC(=O)OC12C (stereo not shown) [Example 8]"
  Antibacterial Activity (MIC): 0.01
- compound: "C#CCOC1(C)CC(C)C(=O)C(C)C2NC(=O)OC2(C)C(CC)OC(=O)C(C)(CC=Cc2ccccc2)C(=O)C(C)C1OC1OC(C)CC(N(C)C)C1O (stereo not shown) [Example 9]"
  Antibacterial Activity (MIC): 1.56
- compound: "CCC1OC(=O)C(C)(CC=Cc2ccccc2)C(=O)C(C)C(OC2OC(C)CC(N(C)C)C2O)C(C)(OC)CC(C)C(=O)C(C)C2NC(=O)OC12C (stereo not shown) [Example 1]"
  Antibacterial Activity (MIC): 12.5
- compound: "CCC1OC(=O)C(C)(O)C(=O)C(C)C(OC2OC(C)CC(N(C)C)C2O)C(C)(OCC(O)CO)CC(C)C(=O)C(C)C2NC(=O)OC12C (stereo not shown) [Example 3]"
  Antibacterial Activity (MIC): 50
- compound: "CCC1OC(=O)C(C)(O)C(=O)C(C)C(OC2OC(C)CC(N(C)C)C2O)C(C)(OC)CC(C)C(=O)C(C)C2N(CCCCc3ccccc3)C(=O)OC12C (stereo not shown) [Example 10]"
  Antibacterial Activity (MIC): 0.2
- compound: "C=CCC1(C)C(=O)OC(CC)C2(C)OC(=O)NC2C(C)C(=O)C(C)CC(C)(OCC=Cc2cnc3ccccc3c2)C(OC2OC(C)CC(N(C)C)C2O)C(C)C1=O (stereo not shown) [Example 4]"
  Antibacterial Activity (MIC): 0.2
- compound: "CC[C@H]1OC(=O)[C@H](C)[C@@H](O[C@H]2C[C@@](C)(OC)[C@@H](O)[C@H](C)O2)[C@H](C)[C@@H](O[C@@H]2O[C@H](C)C[C@H](N(C)C)[C@H]2O)[C@](C)(O)C[C@@H](C)C(=O)[C@H](C)[C@@H](O)[C@]1(C)O [Ery. A, Erythromycin A, reference compound]"
  Antibacterial Activity (MIC): 0.05

====

tested on: Streptococcus Pneumonia 5979; assay: In vitro antibacterial activity, agar dilution MIC; format: cell-based; conditions: code ZZ, 35-37° C., 20 to 24 hours

- compound: "C#CCOC1(C)CC(C)C(=O)C(C)C2NC(=O)OC2(C)C(CC)OC(=O)C(C)(CC=Cc2ccccc2)C(=O)C(C)C1OC1OC(C)CC(N(C)C)C1O (centres unmarked) [Example 9]"
  tested_target: "Streptococcus Pneumonia 5979"
  cmp: "="
  Antibacterial Activity (MIC): 64
- compound: "CCC1OC(=O)C(C)(CC=Cc2ccccc2)C(=O)C(C)C(OC2OC(C)CC(N(C)C)C2O)C(C)(OC)CC(C)C(=O)C(C)C2NC(=O)OC12C (centres unmarked) [Example 1]"
  tested_target: "Streptococcus Pneumonia 5979"
  cmp: "="
  Antibacterial Activity (MIC): 64
- compound: "CCC1OC(=O)C(C)(O)C(=O)C(C)C(OC2OC(C)CC(N(C)C)C2O)C(C)(OCC=Cc2cnc3ccccc3c2)CC(C)C(=O)C(C)C2NC(=O)OC12C (centres unmarked) [Example 8]"
  tested_target: "Streptococcus Pneumonia 5979"
  cmp: "="
  Antibacterial Activity (MIC): 128
- compound: "CCC1OC(=O)C(C)(O)C(=O)C(C)C(OC2OC(C)CC(N(C)C)C2O)C(C)(OCC(O)CO)CC(C)C(=O)C(C)C2NC(=O)OC12C (centres unmarked) [Example 3]"
  tested_target: "Streptococcus Pneumonia 5979"
  cmp: ">"
  Antibacterial Activity (MIC): 128
- compound: "C=CCC1(C)C(=O)OC(CC)C2(C)OC(=O)NC2C(C)C(=O)C(C)CC(C)(OCC=Cc2cnc3ccccc3c2)C(OC2OC(C)CC(N(C)C)C2O)C(C)C1=O (centres unmarked) [Example 4]"
  tested_target: "Streptococcus Pneumonia 5979"
  cmp: "="
  Antibacterial Activity (MIC): 64

====

system: Enterococcus faecium ATCC X043; assay: In vitro antibacterial activity, agar dilution MIC; assay type: cell-based; design: unit not given here; conditions: code II, BHI agar, 35-37° C., 20 to 24 hours

- compound: "C#CCOC1(C)CC(C)C(=O)C(C)C2NC(=O)OC2(C)C(CC)OC(=O)C(C)(CC=Cc2ccccc2)C(=O)C(C)C1OC1OC(C)CC(N(C)C)C1O (stereo not shown) [Example 9]"
  Antibacterial Activity (MIC): 3.1
- compound: "CC[C@H]1OC(=O)[C@H](C)[C@@H](O[C@H]2C[C@@](C)(OC)[C@@H](O)[C@H](C)O2)[C@H](C)[C@@H](O[C@@H]2O[C@H](C)C[C@H](N(C)C)[C@H]2O)[C@](C)(O)C[C@@H](C)C(=O)[C@H](C)[C@@H](O)[C@]1(C)O [Ery. A, Erythromycin A, reference compound]"
  Antibacterial Activity (MIC): 0.05
- compound: "CCC1OC(=O)C(C)(O)C(=O)C(C)C(OC2OC(C)CC(N(C)C)C2O)C(C)(OC)CC(C)C(=O)C(C)C2N(CCCCc3ccccc3)C(=O)OC12C (stereo not shown) [Example 10]"
  Antibacterial Activity (MIC): 0.39
- compound: "C=CCC1(C)C(=O)OC(CC)C2(C)OC(=O)NC2C(C)C(=O)C(C)CC(C)(OCC=Cc2cnc3ccccc3c2)C(OC2OC(C)CC(N(C)C)C2O)C(C)C1=O (stereo not shown) [Example 4]"
  Antibacterial Activity (MIC): 0.2
- compound: "CCC1OC(=O)C(C)(CC=Cc2ccccc2)C(=O)C(C)C(OC2OC(C)CC(N(C)C)C2O)C(C)(OC)CC(C)C(=O)C(C)C2NC(=O)OC12C (stereo not shown) [Example 1]"
  Antibacterial Activity (MIC): 25
- compound: "CCC1OC(=O)C(C)(O)C(=O)C(C)C(OC2OC(C)CC(N(C)C)C2O)C(C)(OCC(O)CO)CC(C)C(=O)C(C)C2NC(=O)OC12C (stereo not shown) [Example 3]"
  Antibacterial Activity (MIC): 100
- compound: "CCC1OC(=O)C(C)(O)C(=O)C(C)C(OC2OC(C)CC(N(C)C)C2O)C(C)(OCC=Cc2cnc3ccccc3c2)CC(C)C(=O)C(C)C2NC(=O)OC12C (stereo not shown) [Example 8]"
  Antibacterial Activity (MIC): 0.2
